These data points were gathered from patent US20210324359A1.

Test system: P. aeruginosa strain WC-453
methodSummary: Time-kill assay in HEPES or CAA with 25% human serum (Tables 7, 8)
Format: cell-based, Pseudomonas aeruginosa
experimentalParameters: CAA + 25% human serum; lysin 10 μg/ml; 1 hr; WC-453
Measured CAA/HuS (Log10 CFU/mL), 1 hr values are reported for all entries that follow.

{"columns": ["molecule", "unitAbbrev", "CAA/HuS (Log10 CFU/mL), 1 hr"],
 "data": [
  ["GN14: lysin obtained from Pseudomonas phage Lull (SEQ ID NO: 124) (protein) NNELPWVAEARKYIGLREDTSKTSHNPKLLAMLDRMGEFSNESRAWWHDDETPWCGLFVGYCLGVAGRYVVREWYRARAWEAPQLTKLDRPAYGALVTFTRSGGGHVGFIVGKDARGNLMVLGGNQSNAVSIAPFAVSRVTGYFWPSFWRNKTAVKSVPFEERYSLPLLKSNGELSTNEA", "Log10 CFU/mL", 5.7],
  ["GN83: AMP OBPgpLYS fused to the N-terminus of lysin GN4 (SEQ ID NO: 216) (protein, OBG_GN4_2 (Lyz+C-term)) MKNSEKNASIIMSIQRTLASLSLYGGRIDGLFGEKCRGAIILMLNKVYPNFSTNKLPSNTYEAESVFTFLQTALAGVGLYTITIDGKWGGTSQGAIDALVKSYRQITEAERAGSTLPLGLATVMSTSQRGIDLIKSFEGLRLSAYQDSVGVWTIGYGTTRGVTRYMTITVEQAERMLSNDIQRFEPELDRLAKVPLNQNQWDALMSFVYNLGAANLASSTLLKLLNKGDYQGAADQFPRWVNAGGKRLDGLVKRRAAERALFLEPLS", "Log10 CFU/mL", 5.7]
]}
